conditions: in ethyl acetate, 328.15 K

| structure as smiles | solubility (mole fraction) |
| --- | --- |
| CC(C)C[C@H](CN)CC(=O)O | 0.00631 |

* * *

conditions: in methanol, 293.15 K
measurement name: solubility (mole fraction)

| structure as smiles | recorded value |
| --- | --- |
| CC(C)C[C@H](CN)CC(=O)O | 0.00242 |

* * *

conditions: in acetonitrile, 278.15 K
measurement name: solubility (mole fraction)

| structure as smiles | recorded value |
| --- | --- |
| CC(C)C[C@H](CN)CC(=O)O | 0.000572 |

* * *

conditions: in n-propanol, 288.15 K

| structure as smiles | solubility (mole fraction) |
| --- | --- |
| CC(C)C[C@H](CN)CC(=O)O | 0.00185 |

* * *

settings: in isobutanol, 298.15 K
measurement name: solubility (mole fraction)

| structure as smiles | recorded value |
| --- | --- |
| CC(C)C[C@H](CN)CC(=O)O | 0.00173 |

* * *

conditions: in acetonitrile, 293.15 K
measurement name: solubility (mole fraction)

| structure as smiles | recorded value |
| --- | --- |
| CC(C)C[C@H](CN)CC(=O)O | 0.00076 |

* * *

details: in isopropanol, 293.15 K

| structure as smiles | solubility (mole fraction) |
| --- | --- |
| CC(C)C[C@H](CN)CC(=O)O | 0.000214 |

* * *

details: in n-propanol, 313.15 K

| structure as smiles | solubility (mole fraction) |
| --- | --- |
| CC(C)C[C@H](CN)CC(=O)O | 0.00412 |

* * *

conditions: in n-butanol, 278.15 K
measurement name: solubility (mole fraction)

| structure as smiles | measurement name | recorded value |
| --- | --- | --- |
| CC(C)C[C@H](CN)CC(=O)O | solubility (mole fraction) | 0.00093 |

* * *

conditions: in n-butanol, 328.15 K
measurement name: solubility (mole fraction)

| structure as smiles | recorded value |
| --- | --- |
| CC(C)C[C@H](CN)CC(=O)O | 0.00731 |

* * *

settings: in n-propanol, 298.15 K

| structure as smiles | solubility (mole fraction) |
| --- | --- |
| CC(C)C[C@H](CN)CC(=O)O | 0.00277 |

* * *

details: in isopropanol, 283.15 K

| structure as smiles | solubility (mole fraction) |
| --- | --- |
| CC(C)C[C@H](CN)CC(=O)O | 0.000125 |

* * *

conditions: in ethanol, 303.15 K
measurement name: solubility (mole fraction)

| structure as smiles | recorded value |
| --- | --- |
| CC(C)C[C@H](CN)CC(=O)O | 0.00321 |

* * *

settings: in ethyl acetate, 308.15 K

| structure as smiles | solubility (mole fraction) |
| --- | --- |
| CC(C)C[C@H](CN)CC(=O)O | 0.00429 |

* * *

settings: in methanol, 288.15 K

| structure as smiles | solubility (mole fraction) |
| --- | --- |
| CC(C)C[C@H](CN)CC(=O)O | 0.00198 |

* * *

conditions: in ethanol, 333.15 K
measurement name: solubility (mole fraction)

| structure as smiles | recorded value |
| --- | --- |
| CC(C)C[C@H](CN)CC(=O)O | 0.00711 |

* * *

details: in n-butanol, 283.15 K
measurement name: solubility (mole fraction)

| structure as smiles | recorded value |
| --- | --- |
| CC(C)C[C@H](CN)CC(=O)O | 0.00152 |

* * *

conditions: in isopropanol, 288.15 K
measurement name: solubility (mole fraction)

| structure as smiles | measurement name | recorded value |
| --- | --- | --- |
| CC(C)C[C@H](CN)CC(=O)O | solubility (mole fraction) | 0.000163 |

* * *

conditions: in n-propanol, 318.15 K

| structure as smiles | solubility (mole fraction) |
| --- | --- |
| CC(C)C[C@H](CN)CC(=O)O | 0.00466 |

* * *

conditions: in ethanol, 298.15 K
measurement name: solubility (mole fraction)

| structure as smiles | recorded value |
| --- | --- |
| CC(C)C[C@H](CN)CC(=O)O | 0.00272 |

* * *

details: in n-propanol, 333.15 K
measurement name: solubility (mole fraction)

| structure as smiles | recorded value |
| --- | --- |
| CC(C)C[C@H](CN)CC(=O)O | 0.00603 |

* * *

conditions: in methanol, 313.15 K
measurement name: solubility (mole fraction)

| structure as smiles | measurement name | recorded value |
| --- | --- | --- |
| CC(C)C[C@H](CN)CC(=O)O | solubility (mole fraction) | 0.00465 |

* * *

details: in n-propanol, 308.15 K

| structure as smiles | solubility (mole fraction) |
| --- | --- |
| CC(C)C[C@H](CN)CC(=O)O | 0.00368 |

* * *

conditions: in acetonitrile, 303.15 K

| structure as smiles | solubility (mole fraction) |
| --- | --- |
| CC(C)C[C@H](CN)CC(=O)O | 0.000885 |

* * *

conditions: in isobutanol, 308.15 K
measurement name: solubility (mole fraction)

| structure as smiles | recorded value |
| --- | --- |
| CC(C)C[C@H](CN)CC(=O)O | 0.00194 |

* * *

conditions: in ethanol, 328.15 K

| structure as smiles | solubility (mole fraction) |
| --- | --- |
| CC(C)C[C@H](CN)CC(=O)O | 0.00634 |

* * *

conditions: in ethyl acetate, 313.15 K

| structure as smiles | solubility (mole fraction) |
| --- | --- |
| CC(C)C[C@H](CN)CC(=O)O | 0.00488 |

* * *

details: in ethyl acetate, 323.15 K

| structure as smiles | solubility (mole fraction) |
| --- | --- |
| CC(C)C[C@H](CN)CC(=O)O | 0.00589 |

* * *

conditions: in n-butanol, 318.15 K

| structure as smiles | solubility (mole fraction) |
| --- | --- |
| CC(C)C[C@H](CN)CC(=O)O | 0.00619 |

* * *

settings: in ethyl acetate, 303.15 K

| structure as smiles | solubility (mole fraction) |
| --- | --- |
| CC(C)C[C@H](CN)CC(=O)O | 0.00374 |

* * *

conditions: in n-propanol, 283.15 K

| structure as smiles | solubility (mole fraction) |
| --- | --- |
| CC(C)C[C@H](CN)CC(=O)O | 0.00144 |

* * *

settings: in isobutanol, 333.15 K
measurement name: solubility (mole fraction)

| structure as smiles | recorded value |
| --- | --- |
| CC(C)C[C@H](CN)CC(=O)O | 0.00234 |

* * *

conditions: in methanol, 278.15 K
measurement name: solubility (mole fraction)

| structure as smiles | measurement name | recorded value |
| --- | --- | --- |
| CC(C)C[C@H](CN)CC(=O)O | solubility (mole fraction) | 0.00112 |

* * *

settings: in ethanol, 278.15 K

| structure as smiles | solubility (mole fraction) |
| --- | --- |
| CC(C)C[C@H](CN)CC(=O)O | 0.00115 |

* * *

conditions: in acetonitrile, 328.15 K

| structure as smiles | solubility (mole fraction) |
| --- | --- |
| CC(C)C[C@H](CN)CC(=O)O | 0.00118 |

* * *

conditions: in isobutanol, 293.15 K

| structure as smiles | solubility (mole fraction) |
| --- | --- |
| CC(C)C[C@H](CN)CC(=O)O | 0.00159 |

* * *

details: in ethyl acetate, 278.15 K
measurement name: solubility (mole fraction)

| structure as smiles | recorded value |
| --- | --- |
| CC(C)C[C@H](CN)CC(=O)O | 0.00164 |

* * *

details: in ethanol, 308.15 K

| structure as smiles | solubility (mole fraction) |
| --- | --- |
| CC(C)C[C@H](CN)CC(=O)O | 0.00369 |

* * *

settings: in isobutanol, 303.15 K

| structure as smiles | solubility (mole fraction) |
| --- | --- |
| CC(C)C[C@H](CN)CC(=O)O | 0.00184 |

* * *

conditions: in ethanol, 288.15 K
measurement name: solubility (mole fraction)

| structure as smiles | recorded value |
| --- | --- |
| CC(C)C[C@H](CN)CC(=O)O | 0.00188 |

* * *

details: in isopropanol, 313.15 K

| structure as smiles | solubility (mole fraction) |
| --- | --- |
| CC(C)C[C@H](CN)CC(=O)O | 0.000362 |

* * *

conditions: in n-butanol, 308.15 K
measurement name: solubility (mole fraction)

| structure as smiles | measurement name | recorded value |
| --- | --- | --- |
| CC(C)C[C@H](CN)CC(=O)O | solubility (mole fraction) | 0.00487 |
